- Test system: HCT-116 colon
- Experimental Details: NCI tumour cell line growth inhibition, 48 h
// values below are reported log10 of TGI
Assay Metric: log10 of TGI (log10 of the value in µM)

{"Compound": "S=c1[nH]c2ccc(I)cc2c(=S)n1Cc1ccccc1", "System": "HCT-116 colon", "Reported Measurement": 1.12}
{"Compound": "O=c1ccc2nc(-c3ccccn3)nn(-c3ccccc3)c-2c1", "System": "HCT-116 colon", "Reported Measurement": 0.53}
{"Compound": "O=C(NC(=O)c1ccccc1[N+](=O)[O-])Nc1ccc(Oc2ncc(Cl)cn2)c(C(F)(F)F)c1", "System": "HCT-116 colon", "Reported Measurement": 1.44}
{"Compound": "CC(C)(C)[Si](C)(C)OCC1OC(n2cnc3c(=O)[nH]c(N)nc32)C(O[Si](C)(C)C(C)(C)C)C1O[Si](C)(C)C(C)(C)C (stereo not given)", "System": "HCT-116 colon", "Reported Measurement": 0.42}
{"Compound": "CCCCCCCCCCCCCC(=O)N(CCCCCCCCC)CC(O)C(O)C(OC1OC(CO)C(O)C(O)C1O)C(O)CO (stereo not given)", "System": "HCT-116 colon", "Reported Measurement": 1.51}
{"Compound": "CCOC(=O)/C=C(\\C(=O)OCC)n1ccc(=O)[nH]c1=O", "System": "HCT-116 colon", "Reported Measurement": 1.29}
{"Compound": "Brc1ccc2c(-c3csc(-c4c[nH]c5ccccc45)n3)c[nH]c2c1", "System": "HCT-116 colon", "Reported Measurement": 1.47}
